Each entry below carries its recorded inhibition at 10 µM.
target_of_assay: human TRPA1 (Homo sapiens)
Construct: expressed in transfected cells; host or cells: CHO cells (G-418 selection)
assay: 45Calcium uptake assay: inhibition of AITC induced cellular uptake of radioactive calcium, human TRPA1 expressing CHO cells
Type: cell-based
stated_conditions: 10.0 μM compound, AITC 30 μM, read-out: human TRPA1 Percentage inhibition at 10.0 μM
Procedure: The illustrative examples of the present invention are screened for TRPA1 activity according to a modified procedure described in (a) Tóth, A. et al. Life Sciences, 2003, 73, 487-498. (b) McNamara C, R. et al, Proc. Natl. Acad. Sci. U.S.A., 2007, 104, 13525-13530. […] The inhibition of TRPA1 receptor activation was measured as inhibition of allyl isothiocyanate (AITC) induced cellular uptake of radioactive calcium. […]
The figure you give is taken to be in %; do not add the unit.

INSERT INTO assay_data (compound, endpoint_value) VALUES
  ('Cn1c(=O)c2c(CC(=O)Nc3nc(-c4ccc(F)c(F)c4)cs3)coc2n(C)c1=O [Example 11]', 99.4),
  ('Cn1c(=O)c2c(CC(=O)Nc3nc(-c4ccc(C(F)(F)F)cc4F)cs3)coc2n(C)c1=O [Example 22]', 98.5),
  ('Cn1c(=O)c2c(CC(=O)Nc3nc(-c4cc(F)c(OCC(C)(C)C)c(Cl)c4)cs3)coc2n(C)c1=O [Example 44]', 99.5);

Turning now to a further record.
[ask] Enter inhibition at 10 µM (test system human TRPA1 (Homo sapiens)) for Cn1c(=O)c2c(CC(=O)Nc3nc(-c4cc(F)c(OCCC(F)(F)F)c(F)c4)cs3)coc2n(C)c1=O [Example 49]
[reply] 98.3

---

target_of_assay: rat TRPA1 (Rattus norvegicus, UniProt Q6RI86)
Sequence (Q6RI86 whole entry): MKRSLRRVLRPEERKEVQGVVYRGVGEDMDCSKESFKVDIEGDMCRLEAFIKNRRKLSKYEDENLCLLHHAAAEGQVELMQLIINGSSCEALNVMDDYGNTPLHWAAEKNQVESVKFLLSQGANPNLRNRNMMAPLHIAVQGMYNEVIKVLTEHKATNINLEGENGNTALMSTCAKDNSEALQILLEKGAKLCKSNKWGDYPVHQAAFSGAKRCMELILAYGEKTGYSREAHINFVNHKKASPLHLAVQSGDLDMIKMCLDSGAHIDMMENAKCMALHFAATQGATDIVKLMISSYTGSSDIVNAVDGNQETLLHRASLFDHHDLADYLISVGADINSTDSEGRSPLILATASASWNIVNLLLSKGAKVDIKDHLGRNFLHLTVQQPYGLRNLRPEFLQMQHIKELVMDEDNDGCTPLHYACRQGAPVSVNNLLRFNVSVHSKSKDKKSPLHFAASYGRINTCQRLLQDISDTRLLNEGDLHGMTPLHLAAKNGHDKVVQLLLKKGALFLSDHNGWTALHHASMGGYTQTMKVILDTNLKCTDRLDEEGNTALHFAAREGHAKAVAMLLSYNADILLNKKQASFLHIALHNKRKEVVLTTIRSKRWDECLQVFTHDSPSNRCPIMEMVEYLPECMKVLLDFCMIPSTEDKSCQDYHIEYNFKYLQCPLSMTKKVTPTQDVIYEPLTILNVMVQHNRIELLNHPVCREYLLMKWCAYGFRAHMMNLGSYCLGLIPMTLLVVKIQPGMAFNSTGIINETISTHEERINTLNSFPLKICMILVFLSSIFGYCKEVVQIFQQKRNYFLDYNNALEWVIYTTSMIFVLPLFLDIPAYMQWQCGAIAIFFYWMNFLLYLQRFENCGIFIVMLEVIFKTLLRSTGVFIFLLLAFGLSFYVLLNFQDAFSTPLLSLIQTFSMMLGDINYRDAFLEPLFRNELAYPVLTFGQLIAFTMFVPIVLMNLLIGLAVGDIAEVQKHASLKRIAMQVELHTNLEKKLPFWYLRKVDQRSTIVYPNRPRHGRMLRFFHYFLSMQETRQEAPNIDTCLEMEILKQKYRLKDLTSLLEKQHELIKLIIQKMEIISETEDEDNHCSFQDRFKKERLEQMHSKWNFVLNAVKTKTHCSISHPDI
assay: 45Calcium uptake assay: inhibition of AITC induced cellular uptake of radioactive calcium, rat TRPA1 expressing CHO cells
stated_conditions: class symbols, AITC 10 μM
Procedure: Screening for TRPA1 Antagonist Using the ^45Calcium Uptake Assay: The inhibition of TRPA1 receptor activation was measured as inhibition of allyl isothiocyanate (AITC) induced cellular uptake of radioactive calcium. Test compounds were dissolved in 100% DMSO to prepare 10 mM stock and then diluted using plain medium with 0.1% BSA and 1.8 mM CaCl2 to get the desired concentration. […] Radioactivity in the lysate was measured in a Packard TopCount after addition of liquid scintillant. […]
pIC50: −log10 of the molar value.
result_type: pIC50

INSERT INTO results (smiles_record, endpoint_value) VALUES
  ('Cn1c(=O)c2c(CC(=O)Nc3nc(-c4ccc(F)c(C(F)(F)F)c4F)cs3)coc2n(C)c1=O', '> 7.30'),
  ('Cc1oc2c(c1CC(=O)Nc1nc(-c3cc(F)c(F)c(F)c3)cs1)c(=O)n(C)c(=O)n2C', '7.00 to 7.30'),
  ('Cn1c(=O)c2c(CC(=O)Nc3nc(-c4ccc(OC(F)(F)F)cc4)cs3)coc2n(C)c1=O', '> 7.30'),
  ('Cc1oc2c(c1CC(=O)Nc1nc(-c3ccc(OC(F)(F)F)c(F)c3)cs1)c(=O)n(C)c(=O)n2C', '> 7.30'),
  ('Cn1c(=O)c2c(CC(=O)Nc3nc(-c4ccc(Cl)c(Cl)c4Cl)cs3)coc2n(C)c1=O', '7.00 to 7.30'),
  ('Cn1c(=O)c2c(CC(=O)Nc3nc(-c4cc(F)c(OCC(F)(F)F)c(Cl)c4)cs3)coc2n(C)c1=O', '> 7.30');

Turning now to a further record.
[ask] Dear colleague, please send me the reported pIC50 for `Cn1c(=O)c2c(CC(=O)Nc3nc(-c4ccc(F)c(Br)c4)cs3)coc2n(C)c1=O` when you can.
[reply] 7.00 to 7.30

---

target_of_assay: human TRPA1 (Homo sapiens)
Construct: expressed in transfected cells; host or cells: CHO cells (G-418 selection)
assay: 45Calcium uptake assay: inhibition of AITC induced cellular uptake of radioactive calcium, human TRPA1 expressing CHO cells
Type: cell-based
stated_conditions: 1.0 μM compound, AITC 30 μM, read-out: human TRPA1 Percentage inhibition at 1.0 μM
result_type: inhibition at 1 µM (%)
The figure you give is taken to be in %; do not add the unit.

Worked cases, inhibition at 1 µM given:
INSERT INTO measurements (smiles_record, endpoint_value) VALUES
  ('Cn1c(=O)c2c(CC(=O)Nc3nc(-c4ccc(F)cc4F)cs3)coc2n(C)c1=O', 97.9),
  ('CC(C)COc1c(F)cc(-c2csc(NC(=O)Cc3coc4c3c(=O)n(C)c(=O)n4C)n2)cc1F', 93.2),
  ('Cn1c(=O)c2c(CC(=O)Nc3nc(C(F)(F)F)cs3)coc2n(C)c1=O', 6.44),
  ('Cn1c(=O)c2c(CC(=O)Nc3nc(-c4cc(F)c(OCC5CC5)c(F)c4)cs3)coc2n(C)c1=O', 94.2),
  ('Cn1c(=O)c2c(CC(=O)Nc3nc(-c4ccc(Cl)c(C(F)(F)F)c4)cs3)coc2n(C)c1=O', 99.9);

[ask] Dear colleague, please send me the reported inhibition at 1 µM for `Cn1c(=O)c2c(CC(=O)Nc3nc(-c4ccc(F)c(Br)c4)cs3)coc2n(C)c1=O` when you can.
[reply] 98.5

[ask] Dear colleague, please send me the reported inhibition at 1 µM for `Cc1oc2c(c1CC(=O)Nc1nc(-c3cccc(C(F)(F)F)c3)cs1)c(=O)n(C)c(=O)n2C` when you can.
[reply] 99.8

[ask] Dear colleague, please send me the reported inhibition at 1 µM for `Cn1c(=O)c2c(CC(=O)Nc3nc(-c4ccc(OC(F)F)c(F)c4)cs3)coc2n(C)c1=O` when you can.
[reply] 96.3

[ask] Dear colleague, please send me the reported inhibition at 1 µM for `Cn1c(=O)c2c(CC(=O)Nc3nc(-c4cc(F)c(OCC(F)(F)F)c(Cl)c4)cs3)coc2n(C)c1=O` when you can.
[reply] 96.6

[ask] Dear colleague, please send me the reported inhibition at 1 µM for `CC(C)COc1ccc(-c2csc(NC(=O)Cc3coc4c3c(=O)n(C)c(=O)n4C)n2)cc1Br` when you can.
[reply] 98.6

[ask] Dear colleague, please send me the reported inhibition at 1 µM for `Cn1c(=O)c2c(CC(=O)Nc3nc(-c4ccc(OCC(C)(C)C)c(Cl)c4)cs3)coc2n(C)c1=O` when you can.
[reply] 97.1

[ask] Dear colleague, please send me the reported inhibition at 1 µM for `CC(C)Cc1ccc(-c2csc(NC(=O)Cc3coc4c3c(=O)n(C)c(=O)n4C)n2)cc1` when you can.
[reply] 27

[ask] Dear colleague, please send me the reported inhibition at 1 µM for `Cc1oc2c(c1CC(=O)Nc1nc(-c3ccc(C(F)(F)F)c(Cl)c3)cs1)c(=O)n(C)c(=O)n2C` when you can.
[reply] 99.4

---

Each entry below carries its recorded pIC50.
target_of_assay: human TRPA1 (Homo sapiens, UniProt O75762)
Construct: expressed in transfected cells; host or cells: CHO cells (G-418 selection)
Sequence (O75762 whole entry): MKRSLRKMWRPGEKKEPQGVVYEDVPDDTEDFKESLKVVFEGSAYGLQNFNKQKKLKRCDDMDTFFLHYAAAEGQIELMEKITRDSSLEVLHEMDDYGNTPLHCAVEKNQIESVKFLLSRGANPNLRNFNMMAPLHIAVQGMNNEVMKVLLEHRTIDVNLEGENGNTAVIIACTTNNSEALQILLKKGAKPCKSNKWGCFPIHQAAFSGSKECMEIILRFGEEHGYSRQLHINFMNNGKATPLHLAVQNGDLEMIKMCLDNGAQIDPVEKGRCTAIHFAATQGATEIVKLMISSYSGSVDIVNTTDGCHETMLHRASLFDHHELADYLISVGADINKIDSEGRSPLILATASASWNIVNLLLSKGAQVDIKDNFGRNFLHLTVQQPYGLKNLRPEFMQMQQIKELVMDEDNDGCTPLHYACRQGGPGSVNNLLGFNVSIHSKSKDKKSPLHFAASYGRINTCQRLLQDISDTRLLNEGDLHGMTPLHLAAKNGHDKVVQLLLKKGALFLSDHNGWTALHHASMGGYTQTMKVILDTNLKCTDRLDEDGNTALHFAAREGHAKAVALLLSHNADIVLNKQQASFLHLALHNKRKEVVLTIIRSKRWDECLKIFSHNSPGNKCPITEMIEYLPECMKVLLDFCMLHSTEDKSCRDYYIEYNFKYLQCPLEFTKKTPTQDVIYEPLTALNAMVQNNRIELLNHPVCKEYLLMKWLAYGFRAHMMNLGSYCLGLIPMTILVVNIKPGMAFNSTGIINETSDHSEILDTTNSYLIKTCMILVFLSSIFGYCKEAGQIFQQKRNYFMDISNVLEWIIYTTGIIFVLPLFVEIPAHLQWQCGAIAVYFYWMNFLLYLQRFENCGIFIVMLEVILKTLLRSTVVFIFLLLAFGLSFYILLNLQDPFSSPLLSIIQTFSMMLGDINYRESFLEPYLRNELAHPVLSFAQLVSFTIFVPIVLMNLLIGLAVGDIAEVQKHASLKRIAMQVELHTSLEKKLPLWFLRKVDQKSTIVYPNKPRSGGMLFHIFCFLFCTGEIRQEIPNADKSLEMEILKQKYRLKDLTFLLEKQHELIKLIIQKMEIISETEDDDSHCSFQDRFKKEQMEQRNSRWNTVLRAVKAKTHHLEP
assay: 45Calcium uptake assay: inhibition of AITC induced cellular uptake of radioactive calcium, human TRPA1 expressing CHO cells
Format: cell-based
stated_conditions: class symbols, AITC 30 μM
pIC50: −log10 of the molar value.

Worked cases, pIC50 given:
INSERT INTO results (smiles_record, endpoint_value) VALUES
  ('Cc1oc2c(c1CC(=O)Nc1nc(-c3cc(C(F)(F)F)ccc3F)cs1)c(=O)n(C)c(=O)n2C', '7.00 to 7.30'),
  ('Cn1c(=O)c2c(CC(=O)Nc3nc(-c4ccc(F)c(C(F)(F)F)c4F)cs3)coc2n(C)c1=O', '> 7.30'),
  ('Cn1c(=O)c2c(CC(=O)Nc3nc(-c4cc(F)c(OCCC(F)(F)F)c(F)c4)cs3)coc2n(C)c1=O', '> 7.30'),
  ('Cn1c(=O)c2c(CC(=O)Nc3nc(-c4cc(Cl)c(OCC(C)(C)C)c(Cl)c4)cs3)coc2n(C)c1=O', '> 7.30'),
  ('Cc1oc2c(c1CC(=O)Nc1nc(-c3ccc(Cl)c(OC(F)(F)F)c3)cs1)c(=O)n(C)c(=O)n2C', '> 7.30');

[ask] Dear colleague, please send me the reported pIC50 for `Cc1oc2c(c1CC(=O)Nc1nc(-c3ccc(F)c(C(F)(F)F)c3)cs1)c(=O)n(C)c(=O)n2C` when you can.
[reply] > 7.30

[ask] Dear colleague, please send me the reported pIC50 for `Cn1c(=O)c2c(CC(=O)Nc3nc(-c4ccc(F)cc4F)cs3)coc2n(C)c1=O` when you can.
[reply] < 7.00

[ask] Dear colleague, please send me the reported pIC50 for `Cn1c(=O)c2c(CC(=O)Nc3nc(-c4ccc(F)c(Br)c4)cs3)coc2n(C)c1=O` when you can.
[reply] > 7.30

[ask] Dear colleague, please send me the reported pIC50 for `Cc1oc2c(c1CC(=O)Nc1nc(-c3ccc(F)c(OC(F)(F)F)c3)cs1)c(=O)n(C)c(=O)n2C` when you can.
[reply] > 7.30

[ask] Dear colleague, please send me the reported pIC50 for `Cn1c(=O)c2c(CC(=O)Nc3nc(-c4cccc(C(F)(F)F)c4)cs3)coc2n(C)c1=O` when you can.
[reply] > 7.30

Where do the numbers come from? From patent US20120178766A1.
